src = the RepoRT retention time repository (doi:10.1016/j.aca.2011.12.065)

Test: RP, Waters ACQUITY UPLC BEH C18, 100 × 2.1 mm, 1.7 µm; A: water + 0.1% formic acid, pH 3; B: 80% acetonitrile + 20% acetone + 0.1% formic acid, pH 3; gradient (min/%B) 0/0 6/100
Details: stereoisomer not certain
experimentalReadout: LC retention time (min)

See these solved cases before continuing.
compound | LC retention time, min
CCCCCCCCCCCCCCCC(=O)OCC(COP(=O)([O-])OCC[N+](C)(C)C)OC(=O)CCCC=O (stereo not given) | 4.66
OCC1OC(OC2C(CO)OC(O)C(O)C2O)C(O)C(O)C1O (stereo not given) [alfa-lactose monohydrate] | 0.6
CC(C)C(N)C(=O)NC(Cc1ccccc1)C(=O)O (stereo not given) | 1.7
CCC(C)C1NC(=O)C(C)NC1=O (stereo not given) | 1.8
NC(CSSCC(N)C(=O)O)C(=O)O (stereo not given) | 0.546
O=C(O)C(O)Cc1ccc(O)cc1 (stereo not drawn) [(DL)-p-hydroxyphenyllactic acid] | 1.54

[I] CC(CCC(=O)O)C1CCC2C3CCC4CC(O)CCC4(C)C3CC(O)C12C (stereo not given)
[II] Nc1ccn(C2OC(CO)C(O)C2O)c(=S)n1 (stereo not given) [2-thiocytidine dihydrate]
Prompt: Lab log: flag the item ( I or II ) with the smaller LC retention time figure. Please respond with the label that marks your chosen entry.
Response: II

[a] CC(CCC(=O)NCC(=O)O)C1CCC2C3C(O)CC4CC(O)CCC4(C)C3CCC12C (stereo not given)
[b] Nc1ncnc2c1ncn2C1OC(CO)C(O)C1O (stereo not given)
Prompt: Which record would sort first by descending LC retention time, a or b ? Please respond with the label that marks your chosen entry.
Response: a

[I] CC(CCC(=O)NCCS(=O)(=O)O)C1CCC2C3CCC4CC(O)CCC4(C)C3CC(O)C12C (stereo not given)
[II] O=Cc1c[nH]c2ccccc12
Prompt: Which record would sort first by descending LC retention time, I or II ? Please respond with the label that marks your chosen entry.
Response: I
(I: 3.33 min, II: 2.27 min)

[1] NCCS(=O)O
[2] CCCCCCCCCCCC(=O)OC(CC(=O)[O-])C[N+](C)(C)C (stereo not given)
Prompt: Lab log: flag the item ( 1 or 2 ) with the smaller LC retention time figure. Please respond with the label that marks your chosen entry.
Response: 1
(1: 0.576 min, 2: 3.38 min)

[a] CCC(C)C(NC(=O)CC(N)C(=O)O)C(=O)O (stereo not given)
[b] COc1ccc(O)c(C(=O)O)c1
Prompt: Which record would sort first by descending LC retention time, a or b ? Please respond with the label that marks your chosen entry.
Response: b

###

Test: RP, Waters ACQUITY UPLC HSS T3, 100 × 2.1 mm, 1.8 µm; A: water + 0.1% formic acid, pH 3; B: 30% methanol + 70% acetonitrile + 0.1% formic acid, pH 3; gradient (min/%B) 0.0/5 1.0/8 2.0/15 3.0/40 4.0/70 4.5/100 5.0/100 6.4/100 6.6/5.0 6.8/5.0 7.0/5.0
Details: stereoisomer not certain
experimentalReadout: LC retention time (min)

See these solved cases before continuing.
compound | experimentalReadout | resultUnit | measuredResult
CC(C)(N)C(=O)O | LC retention time | min | 0.524
CC(NCCCCC(N)C(=O)O)C(=O)O (stereo not given) | LC retention time | min | 0.459

[P] CC(C(=O)O)C(=O)O
[Q] O=C(O)CNC(=O)C=Cc1c[nH]c2ccccc12
[R] CC(=O)NC(CC(=O)O)C(=O)NC(CCC(=O)O)C(=O)O (stereo not given)
Prompt: Hello, I need these entries ordered by LC retention time, highest reading first. Thanks! Please list the labels in the order you were asked to rank them.
Response: Q, R, P
(Q: 3.56 min, R: 0.863 min, P: 0.539 min)
